Could you please report measured Vd for the items listed next?
- Assay Info: Volume of distribution at steady state in Sprague-Dawley rat at 3 mg/kg, iv or 10 mg/kg, po administered as single dose via gavage by LC-MS/MS analysis
- Assay type: ADME, organism-based
- Assay Setup: in vivo, read-out: Vdss
Unit L/kg implied. Number only.

Please report Vd for the following compound: Nc1ncc(C(=O)N[C@H]2CC/C(=C\c3cccc(Oc4ccc(C(F)(F)F)cn4)c3)CC2)cn1 (centres undefined) 0.8

Please report Vd for the following compound: O=C(N[C@H]1CC/C(=C\c2cccc(Oc3ccc(C(F)(F)F)cn3)c2)CC1)c1cccnc1 (centres undefined) 0.9

Please report Vd for the following compound: Nc1ccc(C(=O)N[C@H]2CC/C(=C\c3cccc(Oc4ccc(C(F)(F)F)cn4)c3)CC2)cn1 (centres undefined) 0.6

Please report Vd for the following compound: Cc1cc(C(=O)N[C@H]2CC/C(=C\c3cccc(Oc4ccc(C(F)(F)F)cn4)c3)CC2)cnc1N (centres undefined) 1.2
